Test system: panel of breast cancer cell lines
experiment: Compound A with targeted agents and chemotherapies, 72-hour in vitro proliferation assays
Type: cell-based
assay-setup: HCC1143; compound A × partner, 72-hour proliferation
Structures can show the parent of a compound that is named as a salt.
Please provide measured Bliss Volume for the entries that follow.
Give only the figure.

Prompt line: Bliss Volume lookup needed for CCOc1cc2ncc(C#N)c(Nc3ccc(OCc4ccccn4)c(Cl)c3)c2cc1NC(=O)/C=C/CN(C)C , thanks.
Response line: 14.84

Prompt line: So what's the measured Bliss Volume for this one? O=C(c1cc(Cc2n[nH]c(=O)c3ccccc23)ccc1F)N1CCN(C(=O)C2CC2)CC1
Response line: 4.87

Prompt line: # input compound: Nc1ccn([C@@H]2O[C@H](CO)[C@@H](O)C2(F)F)c(=O)n1 [Gemcitabine Hydrochloride] ; wanted: its Bliss Volume
Response line: 4.32

Prompt line: # get_value(readout='Bliss Volume', item= CN(C)C(=O)c1cc2cnc(Nc3ccc(N4CCNCC4)cn3)nc2n1C1CCCC1 )
Response line: −3.25

Prompt line: Data request, read-out Bliss Volume, for C[C@]12CC[C@@H]3c4ccc(O)cc4C[C@@H](CCCCCCCCC[S+]([O-])CCCC(F)(F)C(F)(F)F)[C@H]3[C@@H]1CC[C@@H]2O (some centres unmarked)
Response line: 0.82

Prompt line: Returns the measured Bliss Volume for the input compound. Input: CC(=O)c1c(C)c2cnc(Nc3ccc(N4CCNCC4)cn3)nc2n(C2CCCC2)c1=O
Response line: −2.16

Prompt line: // returns reported Bliss Volume for input CO[C@H]1C[C@@H]2CC[C@@H](C)[C@@](O)(O2)C(=O)C(=O)N2CCCC[C@H]2C(=O)O[C@H]([C@H](C)C[C@@H]2CC[C@@H](OCCO)[C@H](OC)C2)CC(=O)[C@H](C)/C=C(\C)[C@@H](O)[C@@H](OC)C(=O)[C@H](C)C[C@H](C)/C=C/C=C/C=C/1C
Response line: 8.68

Prompt line: If you can, please state the reported Bliss Volume value of CC(C)NC[C@@H](C(=O)N1CCN(c2ncnc3c2[C@H](C)C[C@H]3O)CC1)c1ccc(Cl)cc1 .
Response line: 1.41

###

I'd appreciate it if you could supply HSA volume values for the items below.
Test system: panel of breast cancer cell lines
experiment: Compound A with targeted agents and chemotherapies, 72-hour in vitro proliferation assays
Assay type: cell-based
assay-setup: DU-4475 cell line; compound A × partner; 72-hour proliferation
Answer field: number only, no words.

Prompt line: Name the reported HSA volume value associated with the compound CCOc1cc2ncc(C#N)c(Nc3ccc(OCc4ccccn4)c(Cl)c3)c2cc1NC(=O)/C=C/CN(C)C [Neratinib]
Response line: 1.06

Prompt line: Param item = C[C@]12CC[C@@H]3c4ccc(O)cc4C[C@@H](CCCCCCCCC[S+]([O-])CCCC(F)(F)C(F)(F)F)[C@H]3[C@@H]1CC[C@@H]2O (stereo partly drawn) [Fulvestrant] ; retrieve measured HSA volume.
Response line: 0.13

Prompt line: Give its HSA volume value. Item: Cc1c(-c2ccc(N3CCc4cccc(C(=O)Nc5nc6ccccc6s5)c4C3)nc2C(=O)O)cnn1CC12CC3CC(CC(C3)C1)C2 [Compound A-1331852]
Response line: 31.29

###

System: panel of breast cancer cell lines
experiment: Compound A with targeted agents and chemotherapies, 72-hour in vitro proliferation assays
Format: cell-based
assay-setup: KPL-1; compound A × partner, 72-hour proliferation
Would you mind telling me the reported Loewe Volume of each entry?
API note: the answer field is a bare number with no unit suffix.

Prompt line: Loewe Volume for C[C@]12CC[C@@H]3c4ccc(O)cc4C[C@@H](CCCCCCCCC[S+]([O-])CCCC(F)(F)C(F)(F)F)[C@H]3[C@@H]1CC[C@@H]2O (stereo partly shown) [Fulvestrant] ?
Response line: 1.04

Prompt line: Bench note: what Loewe Volume did N.N.O=C([O-])C1(C(=O)[O-])CCC1.[Pt+2] [Carboplatin] show?
Response line: 0.65

Prompt line: Quick one: Loewe Volume of CO[C@H]1C[C@@H]2CC[C@@H](C)[C@@](O)(O2)C(=O)C(=O)N2CCCC[C@H]2C(=O)O[C@H]([C@H](C)C[C@@H]2CC[C@@H](OCCO)[C@H](OC)C2)CC(=O)[C@H](C)/C=C(\C)[C@@H](O)[C@@H](OC)C(=O)[C@H](C)C[C@H](C)/C=C/C=C/C=C/1C [Everolimus] ?
Response line: 4.93

Prompt line: Any idea what Loewe Volume was measured for CC(=O)O[C@@]12CO[C@@H]1C[C@H](O)[C@@]1(C)C(=O)[C@H](O)C3=C(C)[C@@H](OC(=O)[C@H](O)[C@@H](NC(=O)OC(C)(C)C)c4ccccc4)C[C@@](O)([C@@H](OC(=O)c4ccccc4)[C@H]21)C3(C)C [Docetaxel] ?
Response line: 7.67

Prompt line: Recorded Loewe Volume for CCN1CCN(Cc2ccc(Nc3ncc(F)c(-c4cc(F)c5nc(C)n(C(C)C)c5c4)n3)nc2)CC1 [Abemaciclib] , please?
Response line: −2.87

Prompt line: What does the data say about its Loewe Volume? Entry: Cc1c(-c2ccc(N3CCc4cccc(C(=O)Nc5nc6ccccc6s5)c4C3)nc2C(=O)O)cnn1CC12CC3CC(CC(C3)C1)C2 [Compound A-1331852]
Response line: 26.65

Prompt line: Consider the compound N.N.[Cl][Pt][Cl] [Cisplatin] and give its measured Loewe Volume.
Response line: 0.45
